- Test system: NIH/3T3 fibroblasts
- ASSAY_INFO: Cytotoxicity in mammalian cells (sulforhodamine B)
- Assay type: cell-based
- MEASUREMENT_CONTEXT: 48 h, read-out: Fibroblasts NIH/3T3 (Fib.) IC50
MEASUREMENT_KIND: IC50 (µM)
Write the number in µM without appending the unit.

// below: answered compounds
[[record]]
compound = "CC(=O)C1=C([O-])C=C2Oc3c(C(C)=O)c(O)c(C)c(O)c3C2(C)C1=O.CC(=O)C1=C([O-])C=C2Oc3c(C(C)=O)c(O)c(C)c(O)c3C2(C)C1=O.CC(=O)C1=C([O-])C=C2Oc3c(C(C)=O)c(O)c(C)c(O)c3C2(C)C1=O.O.O.O.[Eu+3] (stereo not drawn) [EuL3·3H2O 4]"
units_symbol = "µM"
recorded_number = 20.1

[[record]]
compound = "CC(=O)C1=C([O-])C=C2Oc3c(C(C)=O)c(O)c(C)c(O)c3C2(C)C1=O.CC(=O)C1=C([O-])C=C2Oc3c(C(C)=O)c(O)c(C)c(O)c3C2(C)C1=O.CC(=O)C1=C([O-])C=C2Oc3c(C(C)=O)c(O)c(C)c(O)c3C2(C)C1=O.O.O.O.[Nd+3] (stereo not drawn) [NdL3·3H2O 5]"
units_symbol = "µM"
recorded_number = 19.7

[[record]]
compound = "CC(=O)C1=C([O-])C=C2Oc3c(C(C)=O)c(O)c(C)c(O)c3C2(C)C1=O.CC(=O)C1=C([O-])C=C2Oc3c(C(C)=O)c(O)c(C)c(O)c3C2(C)C1=O.CC(=O)C1=C([O-])C=C2Oc3c(C(C)=O)c(O)c(C)c(O)c3C2(C)C1=O.O.O.O.[Gd+3] (stereo not drawn) [GdL3·3H2O 3]"
units_symbol = "µM"
recorded_number = 26.5

[[record]]
compound = "CC(=O)C1=C([O-])C=C2Oc3c(C(C)=O)c(O)c(C)c(O)c3C2(C)C1=O.CC(=O)C1=C([O-])C=C2Oc3c(C(C)=O)c(O)c(C)c(O)c3C2(C)C1=O.CC(=O)C1=C([O-])C=C2Oc3c(C(C)=O)c(O)c(C)c(O)c3C2(C)C1=O.O.O.[Tb+3] (stereo not drawn) [TbL3·2H2O 6]"
units_symbol = "µM"
recorded_number = 17.5

[[record]]
compound = "CC(=O)C1=C([O-])C=C2Oc3c(C(C)=O)c(O)c(C)c(O)c3C2(C)C1=O.CC(=O)C1=C([O-])C=C2Oc3c(C(C)=O)c(O)c(C)c(O)c3C2(C)C1=O.CC(=O)C1=C([O-])C=C2Oc3c(C(C)=O)c(O)c(C)c(O)c3C2(C)C1=O.O.O.O.[La+3] (stereo not drawn) [LaL3·3H2O 7]"
units_symbol = "µM"
recorded_number = 10.9


query: # query: IC50 of entry CC(=O)C1=C([O-])C=C2Oc3c(C(C)=O)c(O)c(C)c(O)c3C2(C)C1=O.CC(=O)C1=C([O-])C=C2Oc3c(C(C)=O)c(O)c(C)c(O)c3C2(C)C1=O.CC(=O)C1=C([O-])C=C2Oc3c(C(C)=O)c(O)c(C)c(O)c3C2(C)C1=O.O.O.O.O.[Sm+3] (stereo not drawn) [SmL3·4H2O 2]
result: 20
